- target under test: IGF2 (human, UniProt P01344)
- test summary: ELISA
pEC50: −log10 of the molar value.
value type: pEC50

- binder: "DVD042 IGF1,2 arm (antibody, V domains shown, DVD-Ig outer) VH: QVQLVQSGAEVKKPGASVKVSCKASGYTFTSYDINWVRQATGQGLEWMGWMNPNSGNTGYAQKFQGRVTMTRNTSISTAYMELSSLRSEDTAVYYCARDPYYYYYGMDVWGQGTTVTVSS VL: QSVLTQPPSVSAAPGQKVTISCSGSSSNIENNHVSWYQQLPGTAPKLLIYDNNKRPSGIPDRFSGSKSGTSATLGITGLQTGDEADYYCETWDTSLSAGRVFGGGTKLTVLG"
  value type: "pEC50"
  value measured: 7.75
